- TARGET DESC: panel of 255 wild-type kinases (Homo sapiens, UniProt Q86Z02)
- Sequence (Q86Z02 whole entry): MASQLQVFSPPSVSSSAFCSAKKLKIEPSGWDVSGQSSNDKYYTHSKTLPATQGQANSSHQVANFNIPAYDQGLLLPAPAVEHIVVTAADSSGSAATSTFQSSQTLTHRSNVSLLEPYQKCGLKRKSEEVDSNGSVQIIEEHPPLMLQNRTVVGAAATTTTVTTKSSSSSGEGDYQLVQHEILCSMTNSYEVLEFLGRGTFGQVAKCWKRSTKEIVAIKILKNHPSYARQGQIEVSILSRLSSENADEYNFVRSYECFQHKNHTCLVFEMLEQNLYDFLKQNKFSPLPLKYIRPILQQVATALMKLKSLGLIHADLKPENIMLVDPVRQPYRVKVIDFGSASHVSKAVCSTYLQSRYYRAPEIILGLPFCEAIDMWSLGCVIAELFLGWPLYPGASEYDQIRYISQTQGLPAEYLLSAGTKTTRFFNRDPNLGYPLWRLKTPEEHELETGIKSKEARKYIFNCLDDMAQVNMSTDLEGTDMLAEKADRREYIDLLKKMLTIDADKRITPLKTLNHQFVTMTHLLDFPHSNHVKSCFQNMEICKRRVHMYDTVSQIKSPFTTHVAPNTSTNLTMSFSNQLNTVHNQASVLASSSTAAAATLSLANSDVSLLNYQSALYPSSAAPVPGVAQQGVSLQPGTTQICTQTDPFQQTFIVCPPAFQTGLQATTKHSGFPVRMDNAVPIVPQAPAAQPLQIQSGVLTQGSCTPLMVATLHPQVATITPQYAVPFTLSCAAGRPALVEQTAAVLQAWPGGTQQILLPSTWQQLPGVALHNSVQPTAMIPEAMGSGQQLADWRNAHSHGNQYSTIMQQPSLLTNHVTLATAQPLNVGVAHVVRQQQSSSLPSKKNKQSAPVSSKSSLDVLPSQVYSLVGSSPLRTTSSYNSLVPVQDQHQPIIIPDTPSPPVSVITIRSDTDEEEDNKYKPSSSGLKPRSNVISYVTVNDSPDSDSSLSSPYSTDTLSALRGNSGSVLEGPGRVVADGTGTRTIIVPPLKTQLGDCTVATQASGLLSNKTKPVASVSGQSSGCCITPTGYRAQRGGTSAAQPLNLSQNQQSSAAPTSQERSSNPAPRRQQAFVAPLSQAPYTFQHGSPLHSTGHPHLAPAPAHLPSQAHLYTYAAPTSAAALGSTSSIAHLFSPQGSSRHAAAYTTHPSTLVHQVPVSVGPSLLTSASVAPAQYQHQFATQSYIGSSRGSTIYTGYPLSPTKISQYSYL
- METHOD NOTES: Kinase panel profiling at 1 µmol/L (MSA or IMAP), percentage inhibition
- Type: biochemical
- RUN PARAMETERS: kinase HIPK1; 1 µmol/L single concentration; read-out: %-inhibition at 1 µmol/L, HIPK1
RESULT TYPE: inhibition at 1 µM (%)
Just the number in %, nothing appended.

Reference set, count: 3
- TEST SMILES: "COc1cc2ncnc(Nc3ccc(F)c(Cl)c3)c2cc1NC(=O)/C=C/CN1CCCCC1"
  RESULT UNIT: "%"
  inhibition at 1 µM: 3.42
- TEST SMILES: "Cc1cc(Nc2ncnc3ccc(NC4=NC(C)(C)CO4)cc23)ccc1Oc1ccn2ncnc2c1"
  RESULT UNIT: "%"
  inhibition at 1 µM: 11
- TEST SMILES: "COC(=O)N[C@@H](C)CNc1nccc(-c2cn(C(C)C)nc2-c2cc(Cl)cc(NS(C)(=O)=O)c2F)n1"
  RESULT UNIT: "%"
  inhibition at 1 µM: 5.6

Query: Indicate the recorded inhibition at 1 µM value for this compound: `CCN1C(=O)N(c2c(F)c(OC)cc(OC)c2F)Cc2cnc3[nH]c(CN4CCOCC4)cc3c21`
Result: 1.47

Query: Report measured inhibition at 1 µM; entry is `C[C@H]1Oc2cc(cnc2N)-c2c(nn(C)c2C#N)CN(C)C(=O)c2ccc(F)cc21`
Result: -1.71

Query: Supply inhibition at 1 µM value. Item: `CCn1c(=O)c(-c2cc(NC(=O)Nc3ccccc3)c(F)cc2Br)cc2cnc(NC)cc21`
Result: -5.27

Query: Quick one: give measured inhibition at 1 µM for `Cn1cnc2c(F)c(Nc3ccc(Br)cc3Cl)c(C(=O)NOCCO)cc21`
Result: 0.0183

Query: Give the value of inhibition at 1 µM reported for the following: `O=C(Nc1cnn2ccc(N3CCC[C@@H]3c3cc(F)ccc3F)nc12)N1CC[C@H](O)C1`
Result: -3.73

Reference for the values: paper PMC9516332
